The measurements presented in this section are drawn from patent US20160200799A1.

# tgt: Influenza virus A/California/7/2009pdm (H1N1pdm) (Influenza A virus A/California/7/2009pdm (H1N1pdm))
# method.summary: ELISA on coated viral particles
parameter: Binding activity (absorbance at 492 nm)
Give bare numbers.

{"binder": "Group 52 representative clone F083-328, Fab-cp3-type antibody (Fab, V domains shown) VH: QVQLVQSGAEVKKPGSSVKLSCKASGGTLRSYALSWVRQAPGEGLEWMGGISAIFNTATYAQNVQGRVTITADESTNTFYLEVSSLRSDDTAVYYCATSGTYYVSFFDYWGQGTLVTVSS VL: DIVLTQSPSTLSASVGDRVTLTCRASQSIGSLMAWYQQQPGKPPKLLIYRASNLETGVPSRFTGSGSGTEFALTISSLQPDDVGTYYCQHFKTFSRTFGQGTKVEIK", "Binding activity (absorbance at 492 nm)": 2.02}

Can you give me Binding activity (absorbance at 492 nm) for all of these, one by one?
1. Group 2 representative clone F082-220, Fab-cp3-type antibody (Fab, V domains shown) VH: QVQLVQSGAEVKKPGSSVKVSCKASGGIFRSNAVSWVRQAPGQGLEWMGGIIAIFGTPKYAQKFQGRVTITADESTSTVYMELSGLRYEDTAVYYCARGPNYYESYFDYWGQGTLVTVSS VL: DIVMTQSPPSLSASVGDRVTITCRASQGISNYLAWYQQKPGKAPKLLIFGASTLHSGVSSRFSGSGSGPDFTLTISSLQPEDAATYYCQKYHSAPLTFGGGTKVEMK
2. Group 80 representative clone F083-373, Fab-cp3-type antibody (Fab, V domains shown) VH: QVQLVQSGADVKKPGSSVRVSCKASGRTFGNYAISWVRQAPGQGLEWMGGITPIFGAANYAQKFQGRVTISADLSTTMVYMDLSSLRSDDTAFYYCAGHPTYYYGSPMDYWGQGTLVTVSS VL: EIVLTQSPSSLSASVGDRVTITCRASQSIATYLNWYQQKPGKAPNLLIYAASNLQSGVPSRFSGSGSGTDFTLTISSLQPEDFATYVCLQSYSATLTFGGGTKVEIK
3. Group 51 representative clone F083-302, Fab-cp3-type antibody (Fab, V domains shown) VH: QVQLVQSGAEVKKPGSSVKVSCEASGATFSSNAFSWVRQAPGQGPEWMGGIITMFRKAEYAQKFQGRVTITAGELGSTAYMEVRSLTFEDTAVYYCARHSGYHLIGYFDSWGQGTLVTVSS VL: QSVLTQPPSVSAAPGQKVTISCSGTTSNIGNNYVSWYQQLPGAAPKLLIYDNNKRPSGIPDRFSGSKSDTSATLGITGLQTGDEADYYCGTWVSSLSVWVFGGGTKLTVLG

OUTPUT:
[2.72, 0.17, 1.55]
